observation.type: melting point

Please review the entries below; each comes with its answer.
COC(=O)C(CC(C)C)NC(=O)c1cc(O)c2c(c1)C(=O)c1cccc(O)c1C2=O (stereo not shown)	175.1 to 176.3 °C
CCOC(=O)C(CC(C)C)NC(=O)c1cc(O)c2c(c1)C(=O)c1cccc(O)c1C2=O (stereo not shown)	167.9 to 170 °C
CCOC(=O)C(Cc1ccccc1)NC(=O)c1cc(O)c2c(c1)C(=O)c1cccc(O)c1C2=O (stereo not shown)	171 to 172.7 °C

Proceed to the following item.
// melting point lookup, key: CCOC(=O)CC(NC(=O)c1cc(O)c2c(c1)C(=O)c1cccc(O)c1C2=O)C(=O)OCC (stereo not shown)
174.7 to 175.2 °C

* * *

Please go through the items and note down their melting point.

Examples from the recorded data:
COC(=O)C(C)NC(=O)c1cc(O)c2c(c1)C(=O)c1cccc(O)c1C2=O (stereo not drawn) [Example 1]	236.3 to 237.9 °C
COc1ccc(CNC(=O)c2cc(O)c3c(c2)C(=O)c2cccc(O)c2C3=O)cc1 [Comparative Example 9]	244.5 to 249.4 °C
CCOC(=O)C(NC(=O)c1cc(O)c2c(c1)C(=O)c1cccc(O)c1C2=O)C(C)CC (stereo not drawn) [Comparative Example 4]	167 to 167.5 °C
CCCNC(=O)c1cc(O)c2c(c1)C(=O)c1cccc(O)c1C2=O [Example 5]	264.1 to 265 °C

Would you mind listing melting point for each of the following compounds?
1. CCOC(=O)CCC(NC(=O)c1cc(O)c2c(c1)C(=O)c1cccc(O)c1C2=O)C(=O)OCC (stereo not drawn) [Example 3]
2. CCOC(=O)C(CCSC)NC(=O)c1cc(O)c2c(c1)C(=O)c1cccc(O)c1C2=O (stereo not drawn) [Comparative Example 6]
3. CCOC(=O)N1CCN(C(=O)c2cc(O)c3c(c2)C(=O)c2cccc(O)c2C3=O)CC1 [Example 7]
4. CCCCNC(=O)c1cc(O)c2c(c1)C(=O)c1cccc(O)c1C2=O [Example 6]
5. CCOC(=O)C(NC(=O)c1cc(O)c2c(c1)C(=O)c1cccc(O)c1C2=O)C(C)C (stereo not drawn) [Comparative Example 7]
6. CCOC(=O)C(CC)NC(=O)c1cc(O)c2c(c1)C(=O)c1cccc(O)c1C2=O (stereo not drawn) [Example 2]

202 to 202.3 °C
177.2 to 178 °C
222.2 to 222.8 °C
215.2 to 215.9 °C
202.1 to 202.7 °C
196.7 to 197.2 °C

Batch: melting point for all items listed.
1. CCC(C)C(NC(=O)c1cc(O)c2c(c1)C(=O)c1cccc(O)c1C2=O)C(=O)OC (stereo not drawn) [Comparative Example 2]
2. CC(=O)c1ccc(N2CCN(C(=O)c3cc(O)c4c(c3)C(=O)c3cccc(O)c3C4=O)CC2)cc1 [Comparative Example 10]

1. 179.7 to 182.3 °C
2. 270.1 to 272.2 °C

* * *

Test system: HCC cells SNU398
Test: CCK-8 cell proliferation assay, SNU398 cells
Type: cell-based
Conditions: Homo sapiens, SNU-398; SNU398 cells (high RECQL4 expression), 48 h culture, CCK-8, OD 450 nm, Mean ± S.E.M
Method: The effects of the above-prepared rhein amide derivatives on cell proliferation were detected by a CCK-8 kit. The CCK-8 kit can evaluate a proliferation activity of cells by detecting an absorbance at a 450 nm wavelength. SNU398 and LO2 cells were digested to obtain a cell suspension, the cell suspension was diluted with a medium to a density of about 5×10^3 cells/well, 100 µl of cell liquid was added to each well, and a blank group and a negative control group were set up. […]
For each record, write down the corresponding IC50.
Your reply should be a number followed by the unit it is expressed in.

CCOC(=O)CCC(NC(=O)c1cc(O)c2c(c1)C(=O)c1cccc(O)c1C2=O)C(=O)OCC (stereo not shown) [Example 3]	66.8 µM

For each entry beneath this line, provide reported IC50.
1. CCC(C)C(NC(=O)c1cc(O)c2c(c1)C(=O)c1cccc(O)c1C2=O)C(=O)OC (stereo not shown) [Comparative Example 2]
2. CC(=O)c1ccc(N2CCN(C(=O)c3cc(O)c4c(c3)C(=O)c3cccc(O)c3C4=O)CC2)cc1 [Comparative Example 10]
3. CCOC(=O)C(CCSC)NC(=O)c1cc(O)c2c(c1)C(=O)c1cccc(O)c1C2=O (stereo not shown) [Comparative Example 6]

1. 470 µM
2. 222 µM
3. 19.8 µM

* * *

System: HCC cells SNU398
Experiment: CCK-8 cell proliferation assay, SNU398 cells
Assay type: cell-based
Conditions: Homo sapiens, SNU-398; SNU398 cells (high RECQL4 expression), 48 h culture, CCK-8, OD 450 nm, Mean ± S.E.M
Each record is given satisfied if its reported IC50 is strictly below 100 µM. Records at or above 100 µM are given not satisfied.

Examples from the recorded data:
CCOC(=O)CC(NC(=O)c1cc(O)c2c(c1)C(=O)c1cccc(O)c1C2=O)C(=O)OCC (centres unmarked)	satisfied
CCCNC(=O)c1cc(O)c2c(c1)C(=O)c1cccc(O)c1C2=O	not satisfied
CCOC(=O)C(NC(=O)c1cc(O)c2c(c1)C(=O)c1cccc(O)c1C2=O)C(C)CC (centres unmarked)	satisfied
CCOC(=O)N1CCN(C(=O)c2cc(O)c3c(c2)C(=O)c2cccc(O)c2C3=O)CC1	satisfied
COc1ccc(CNC(=O)c2cc(O)c3c(c2)C(=O)c2cccc(O)c2C3=O)cc1	not satisfied
COC(=O)C(C)NC(=O)c1cc(O)c2c(c1)C(=O)c1cccc(O)c1C2=O (centres unmarked)	satisfied

Decide: IC50 of CCOC(=O)C(CC(C)C)NC(=O)c1cc(O)c2c(c1)C(=O)c1cccc(O)c1C2=O (centres unmarked) strictly below 100 µM?
not satisfied

Please indicate whether the reported IC50 of CCOC(=O)C(Cc1ccccc1)NC(=O)c1cc(O)c2c(c1)C(=O)c1cccc(O)c1C2=O (centres unmarked) is strictly below 100 µM.
not satisfied

* * *

System: HCC cells SNU398
Assay: CCK-8 cell proliferation assay, SNU398 cells
Type: cell-based
Conditions: Homo sapiens, SNU-398; SNU398 cells (high RECQL4 expression), 48 h culture, CCK-8, OD 450 nm, Mean ± S.E.M
observation.type: IC50 (µM)
One number for each entry, in µM.

CCCCNC(=O)c1cc(O)c2c(c1)C(=O)c1cccc(O)c1C2=O	5.85
CCOC(=O)C(NC(=O)c1cc(O)c2c(c1)C(=O)c1cccc(O)c1C2=O)C(C)C (stereo not shown)	161
CCOC(=O)C(CC)NC(=O)c1cc(O)c2c(c1)C(=O)c1cccc(O)c1C2=O (stereo not shown)	8.81

Pending compound:
// returns reported IC50 for input COC(=O)C(CC(C)C)NC(=O)c1cc(O)c2c(c1)C(=O)c1cccc(O)c1C2=O (stereo not shown)
25.9
